Source: patent US7767676B2

Counter-ions that a name gives are not always drawn.
Listed here: items and their measured melting point.

Known melting point results, listed for orientation:
| molecule | result.value |
| --- | --- |
| CN(C)C1=NC(C)(C)N=C(N2CCCC2)N1 (as salt: HCl) | > 260 °C |
| CN(C)C1=NC(C(C)(C)C)N=C(N)N1 (stereo not drawn) (as salt: HCl) | > 260 °C |
| CN(C)C1=NC(C(F)(F)F)N=C(N)N1 (stereo not drawn) (as salt: toluenesulphonate) | 251 to 253 °C |

We next turn to a different molecule, shown below.
Could you tell me which melting point is on file for CN(C)C1=NC(c2ccc(O)cc2)N=C(N)N1 (stereo not drawn) (as salt: HCl) [Compound 12] ?
251 to 253 °C

###

Structures can show the parent of a compound that is named as a salt.
Listed here: items and their measured melting point.

Known melting point results, listed for orientation:
| compound | melting point |
| --- | --- |
| CC(C)CCCC(C)[C@H]1CCC2C3CCC4CC5(CC[C@]4(C)C3CC[C@@]21C)N=C(N)NC(N(C)C)=N5 (some centres unmarked) (as salt: HCl) | > 260 °C |
| CN(C)C1=NC2(CCC(O)CC2)N=C(N)N1 (centres unmarked) (as salt: HCl) | > 250 °C |

Could you tell me which melting point is on file for CN(C)C1=NC2(CCOCC2)N=C(N)N1 (as salt: HCl) ?
> 260 °C

Could you tell me which melting point is on file for CN(C)C1=NC(C)(CCCO)N=C(N)N1 (centres unmarked) [Compound 6] ?
138 to 140 °C

Could you tell me which melting point is on file for C=CCNC1=NC(C)N=C(N(C)C)N1 (centres unmarked) (as salt: HCl) ?
91 to 92 °C

Could you tell me which melting point is on file for CN(C)C1=NC(C)(C)N=C(N(C)C)N1 (as salt: HCl) ?
250 to 252 °C

Could you tell me which melting point is on file for CN(C)C1=NC(C2CCCCC2)N=C(N)N1 (centres unmarked) (as salt: toluenesulphonate) ?
201 to 203 °C

Could you tell me which melting point is on file for CCC1(CC)N=C(N)NC(N(C)C)=N1 (as salt: salt) ?
140 to 144 °C

Could you tell me which melting point is on file for CC1N=C(N(C)C)NC(N2CCCC2)=N1 (centres unmarked) (as salt: salt) ?
> 140 °C

Could you tell me which melting point is on file for CC(C)NC1=NC(C)(C)N=C(N(C)C)N1 (as salt: HCl) ?
149 to 151 °C

Could you tell me which melting point is on file for CN(C)C1=NC(c2ccccc2)N=C(N)N1 (centres unmarked) (as salt: HCl) ?
239 to 241 °C

Could you tell me which melting point is on file for CC(CCC(=O)O)[C@H]1CCC2C3CCC4CC5(CC[C@]4(C)C3CC[C@@]21C)N=C(N)NC(N(C)C)=N5 (some centres unmarked) (as salt: HCl) ?
> 260 °C

Could you tell me which melting point is on file for CN(C)C1=NC(C)(CCCO)N=C(N)N1 (centres unmarked) (as salt: HCl) [Compound 7] ?
150 to 152 °C

Could you tell me which melting point is on file for COc1ccc(C2N=C(N)NC(N(C)C)=N2)cc1 (centres unmarked) (as salt: HCl) ?
221 to 223 °C
